Some compounds, each annotated with its measured z-score.
assay: compound effects on lung adenocarcinoma cell viability – A549, calcein-AM fluorescence, 48 h, basal, profiling panel (AID 1162); conditions: higher = more signal; note: test concentration not given here
Write the value as a bare number.

# example entries with known answers
COCCCNC(=O)[C@@]1(Sc2ccc(C)cc2)CC(=O)N(Cc2ccccc2Cl)[C@@H]1c1ccc(CO)cc1 : 0.102
O=C1C2C=CC(C(O)c3ccc(F)cc3)N(Nc3ccc([N+](=O)[O-])cc3)C2C(=O)N1c1ccccc1 (centres undefined) : -0.755
CC(C)[Si](C#C[Si](C(C)C)(C(C)C)C(C)C)(O[C@H](C)c1cn(Cc2ccccc2)nn1)C(C)C : 1.25

Query: I would be grateful if you could share the reported z-score for O=C1OCC=C[C@H]2OC34C=CCN(Cn5nnc6ccccc65)C(=O)[C@H]3N(CCCCCO)C(=O)[C@@H]4[C@@H]12 (some centres undefined) .
Response: -0.382
